# System: Es-2
# EXPERIMENTAL_DETAILS: Primary qHTS to identify gynecologic anti-cancer compounds using libraries of approved drugs and bioactive compounds (AID 1345084); further: on the % scale 0 is the no-effect control and ±100 the full control effect; nearly all actives have a fitted effect of over 55% in size
# CONDITIONS: Gynecologic cancer cell panel viability, ATPlite luminescence, 48 h; series mostly up to 57.5 µM
Inconclusive results are not listed. Activity calls are given as the source filed them. The call rests on the fitted dose curve; in most records, active means well fitted cell-killing curve with a large enough effect; inconclusive means small, poorly fitted or top-dose-only effect, or effect the other way; inactive means flat fitted curve, though single readings scatter.
PROPERTY_MEASURED: activity change, negative = cytotoxicity

Below, each entry is followed by its recorded activity change, negative = cytotoxicity result.
>  <COMPOUND>
O=S(=O)(O)c1cc(I)c(O)c2ncccc12

>  <RESULT_VALUE>
inactive

$$$$
>  <COMPOUND>
C[C@H](N)[C@H](O)c1cccc(O)c1

>  <RESULT_VALUE>
inactive

$$$$
>  <COMPOUND>
O=C1c2c(O)cccc2Cc2cccc(O)c21

>  <RESULT_VALUE>
inactive

$$$$
>  <COMPOUND>
CCn1cc(C(=O)O)c(=O)c2cnc(N3CCNCC3)nc21

>  <RESULT_VALUE>
inactive

$$$$
>  <COMPOUND>
CN1CCC[C@@H]1Cc1c[nH]c2ccc(CCS(=O)(=O)c3ccccc3)cc12

>  <RESULT_VALUE>
inactive

$$$$

## Task What value of activity change, negative = cytotoxicity has been reported for the following compound? NC(=O)c1ncn([C@@H]2O[C@H](CO)[C@@H](O)[C@H]2O)c1N
## Result inactive

## Task Please look up its activity change, negative = cytotoxicity: CCN(CC)CCNC(C(=O)OCCC(C)C)c1ccccc1 (configuration not stated)
## Result inactive

## Task Which activity change, negative = cytotoxicity value is on record for CC1(C)CO[C@@H](CC(=O)O)CN1 ?
## Result inactive

## Task Give the measured activity change, negative = cytotoxicity of CC(=O)OCC(=O)[C@@]1(O)CC[C@H]2[C@@H]3CCC4=CC(=O)CC[C@]4(C)[C@H]3C(=O)C[C@@]21C .
## Result inactive

## Task Query: activity change, negative = cytotoxicity; subject: CC(C)(C)NCC(O)COc1ccc(NC(=O)NC2CCCCC2)cc1 (configuration not stated)
## Result inactive

## Task Return reported activity change, negative = cytotoxicity; argument: CCN(CC)CCOC(=O)C1(C2CCCCC2)CCCCC1
## Result inactive

## Task Fill blank: measured activity change, negative = cytotoxicity of the compound O=C(O)Cc1sc(-c2ccccc2)nc1-c1ccc(Cl)cc1 is ____.
## Result inactive

## Task Item N[C@H]1C(O)O[C@H](CO)[C@@H](O)[C@@H]1O (some centres not stated) has what recorded activity change, negative = cytotoxicity?
## Result inactive

## Task Name the recorded activity change, negative = cytotoxicity for CN1[C@@H]2CC(OC(=O)[C@H](CO)c3ccccc3)C[C@H]1[C@@H]1O[C@@H]12 (some centres not stated) .
## Result inactive

## Task # get_value(readout='activity change, negative = cytotoxicity', item= Cc1cc(C(C#N)c2ccc(Cl)cc2)c(Cl)cc1NC(=O)c1cc(I)cc(I)c1O (configuration not stated) )
## Result inactive

## Task Tell me the measured activity change, negative = cytotoxicity of CCCCOC(=O)c1ccc(O)cc1 , please.
## Result inactive

## Task Please report the recorded activity change, negative = cytotoxicity for CC1(C)S[C@@H]2[C@H](NC(=O)Cc3ccccc3)C(=O)N2[C@H]1C(=O)O (tested in a mixture with another compound) .
## Result inactive

## Task Given the compound N[C@@H](CSSC[C@H](N)C(=O)O)C(=O)O , what is its reported activity change, negative = cytotoxicity?
## Result -1.97% [at 0.462 µM] (inactive)

## Task Which value of activity change, negative = cytotoxicity has been reported for C=Cc1c(C)c2cc3[nH]c(cc4nc(cc5nc(cc1[nH]2)C(C)=C5CCC(=O)O)C(CCC(=O)O)=C4C)c(C)c3C=C in the records?
## Result inactive

## Task Data request, read-out activity change, negative = cytotoxicity, for COc1ccc(Cl)cc1C(=O)NCCc1ccc(S(=O)(=O)NC(=O)NC2CCCCC2)cc1
## Result inactive

## Task I would be grateful if you could share the reported activity change, negative = cytotoxicity for CS(=O)(=O)c1ccc([C@@H](O)[C@@H](CF)NC(=O)C(Cl)Cl)cc1 .
## Result inactive

## Task What does the data say about its activity change, negative = cytotoxicity? Entry: O=C(O)c1ccccn1
## Result inactive
